- experimental.system: EZH2/SUZ/EED (Homo sapiens, UniProt O75530+Q15022+Q15910)
- Sequence (Q15910 2-746 limits assumed): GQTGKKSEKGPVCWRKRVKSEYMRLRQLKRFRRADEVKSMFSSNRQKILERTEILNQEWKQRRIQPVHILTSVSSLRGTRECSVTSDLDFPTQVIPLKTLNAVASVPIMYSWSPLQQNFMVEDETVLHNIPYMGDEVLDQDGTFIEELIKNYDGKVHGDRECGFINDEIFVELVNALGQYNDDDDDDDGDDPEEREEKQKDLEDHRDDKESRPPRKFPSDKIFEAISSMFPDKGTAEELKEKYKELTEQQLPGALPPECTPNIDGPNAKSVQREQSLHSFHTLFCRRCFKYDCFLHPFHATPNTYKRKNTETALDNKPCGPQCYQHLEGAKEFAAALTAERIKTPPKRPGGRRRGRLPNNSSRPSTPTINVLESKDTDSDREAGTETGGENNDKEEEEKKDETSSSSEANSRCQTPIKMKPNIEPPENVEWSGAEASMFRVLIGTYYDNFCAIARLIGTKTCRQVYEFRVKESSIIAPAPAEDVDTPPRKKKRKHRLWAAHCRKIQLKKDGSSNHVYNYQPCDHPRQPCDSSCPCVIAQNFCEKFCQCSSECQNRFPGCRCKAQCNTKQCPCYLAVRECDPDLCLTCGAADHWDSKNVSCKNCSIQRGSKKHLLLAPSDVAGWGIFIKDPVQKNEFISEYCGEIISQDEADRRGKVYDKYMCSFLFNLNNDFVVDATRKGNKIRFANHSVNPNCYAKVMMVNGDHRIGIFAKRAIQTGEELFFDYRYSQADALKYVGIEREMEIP
- Sequence (Q15022 2-739 partner limits assumed): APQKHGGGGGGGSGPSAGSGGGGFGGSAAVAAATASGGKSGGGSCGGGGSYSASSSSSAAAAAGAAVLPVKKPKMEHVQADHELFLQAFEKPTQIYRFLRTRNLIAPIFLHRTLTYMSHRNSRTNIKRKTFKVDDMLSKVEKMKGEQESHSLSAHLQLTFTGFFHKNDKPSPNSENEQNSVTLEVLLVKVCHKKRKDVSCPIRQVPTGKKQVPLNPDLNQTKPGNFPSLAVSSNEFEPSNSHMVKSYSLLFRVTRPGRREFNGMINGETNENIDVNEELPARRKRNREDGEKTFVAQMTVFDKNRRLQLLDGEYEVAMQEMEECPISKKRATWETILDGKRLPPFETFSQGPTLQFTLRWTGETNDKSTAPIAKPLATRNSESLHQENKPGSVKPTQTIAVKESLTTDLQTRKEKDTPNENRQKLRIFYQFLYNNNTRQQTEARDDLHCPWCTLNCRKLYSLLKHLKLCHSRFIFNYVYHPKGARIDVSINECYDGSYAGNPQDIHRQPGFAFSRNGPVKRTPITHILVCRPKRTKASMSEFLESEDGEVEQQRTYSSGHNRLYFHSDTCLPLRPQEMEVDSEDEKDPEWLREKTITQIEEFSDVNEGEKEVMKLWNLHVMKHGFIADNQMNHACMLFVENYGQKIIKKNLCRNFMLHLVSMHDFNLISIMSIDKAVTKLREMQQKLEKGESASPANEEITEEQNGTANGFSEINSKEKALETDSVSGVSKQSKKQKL
- Sequence (O75530 2-441 partner limits assumed): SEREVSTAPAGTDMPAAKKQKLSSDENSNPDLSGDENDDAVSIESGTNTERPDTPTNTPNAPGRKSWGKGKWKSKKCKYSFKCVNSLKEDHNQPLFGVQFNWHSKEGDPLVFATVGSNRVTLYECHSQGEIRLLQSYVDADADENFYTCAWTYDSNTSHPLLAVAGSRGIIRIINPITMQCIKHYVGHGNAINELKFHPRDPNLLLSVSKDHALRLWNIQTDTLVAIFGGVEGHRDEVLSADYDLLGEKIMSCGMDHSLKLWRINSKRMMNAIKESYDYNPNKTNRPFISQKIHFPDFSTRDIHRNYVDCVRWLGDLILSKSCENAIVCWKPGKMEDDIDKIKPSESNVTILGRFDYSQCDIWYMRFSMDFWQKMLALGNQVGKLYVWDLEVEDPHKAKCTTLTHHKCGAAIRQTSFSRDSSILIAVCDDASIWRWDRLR
- assay.info: Inhibitory effect on EZH2 by the MTase-Glo method (Test Example 1)
- assay.conditions: EZH2/SUZ/EED 6.25 nM, H3 peptide 10 μM, SAM 3 μM, 30° C. 3 h, read-out: Test Example 1 WT EZH2 IC50
measurement.type: log10 of IC50 (log10 of the value in nM)
All values: log10 IC50 [nM].

Entry `CO[C@@H]1CCN([C@H]2CC[C@@H]([C@H]3COc4c(Cl)cc(C(=O)NCc5c(SC)cc(C)[nH]c5=O)c(C)c4O3)CC2)C1` has what log10 of IC50?
0.63

Value lookup for log10 of IC50; key = `COc1cc(C)[nH]c(=O)c1CNC(=O)c1cc(Cl)c2c(c1C)O[C@H]([C@H]1CC[C@@H](N3CC(OC)C3)CC1)CO2`
2.11

I would be grateful if you could share the reported log10 of IC50 for COC1CN([C@H]2CC[C@H]([C@H]3COc4c(Cl)cc(C(=O)NCc5c([S+](C)[O-])cc(C)[nH]c5=O)c(C)c4O3)CC2)C1 (stereo partly shown) .
2.95

Can you share its log10 of IC50? I mean this compound: CSc1cc(C)[nH]c(=O)c1CNC(=O)c1cc(Cl)c2c(c1C)O[C@@H]([C@H]1CC[C@@H](N3CC4COCC4C3)CC1)CO2 (stereo partly shown)
0.57

log10 of IC50 for `CSc1cc(C)[nH]c(=O)c1CNC(=O)c1cc(Cl)c2c(c1C)O[C@@H]([C@H]1CC[C@@H](N3CC(OC4CC4)C3)CC1)CO2` ?
0.91

Which log10 of IC50 is reported for this compound? `COC1CN([C@H]2CC[C@H]([C@H]3COc4c(Cl)cc(C(=O)NCc5c(SC)cc(C)[nH]c5=O)c(Cl)c4O3)CC2)C1`
1.06

For the compound shown here, `COC1CN([C@H]2CC[C@@H]([C@H]3COc4c(Cl)cc(C(=O)NCc5c(Cl)cc(C)[nH]c5=O)c(C)c4O3)CC2)C1` , give the reported log10 of IC50.
0.53

If you can, please state the reported log10 of IC50 value of Cc1cc(C)c(CNC(=O)c2cc(Cl)c3c(c2C)O[C@H]([C@H]2CC[C@H](N4CC5COCC5C4)CC2)CO3)c(=O)[nH]1 (stereo partly shown) .
3.10

Give its log10 of IC50 value. Item: `COC1CN([C@H]2CC[C@H]([C@H]3COc4c(C#N)cc(C(=O)NCc5c(SC)cc(C)[nH]c5=O)c(C)c4O3)CC2)C1`
0.62

Would you kindly share the measured log10 of IC50 for `CSc1cc(C)[nH]c(=O)c1CNC(=O)c1cc(Cl)c2c(c1C)O[C@@H]([C@H]1CC[C@@H](N(C)C)CC1)CO2` ?
0.40

Recorded log10 of IC50 for `CSc1cc(C)[nH]c(=O)c1CNC(=O)c1cc(Cl)c2c(c1C)O[C@H]([C@H]1CC[C@H](N3CC(OC4CC4)C3)CC1)CO2` , please?
0.41

Recorded log10 of IC50 for Cc1cc(C)c(CNC(=O)c2c(C)c3c(c(Cl)c2F)OC[C@H](C2CCC(N(C)C)CC2)O3)c(=O)[nH]1 (stereo partly shown) , please?
1.10

Please report the recorded log10 of IC50 for Cc1cc(C)c(CNC(=O)c2cc(Cl)c3c(c2C)OC(C2CCC(N(C)C4CC(F)C4)CC2)CO3)c(=O)[nH]1 (stereo not shown) .
1.31

I'd like to know its log10 of IC50. The compound in question is `Cc1cc(C)c(CNC(=O)c2cc(Cl)c3c(c2Cl)O[C@@H]([C@H]2CC[C@@H](N(C)C)CC2)CO3)c(=O)[nH]1`
0.74

# query: log10 of IC50 of entry COc1cc(C)[nH]c(=O)c1CNC(=O)c1cc(Cl)c2c(c1C)O[C@@H]([C@H]1CC[C@@H](N3CC4COCC4C3)CC1)CO2 (stereo partly shown)
1.06

Give its log10 of IC50 value. Item: `COC1CN([C@H]2CC[C@@H]([C@H]3COc4c(Cl)cc(C(=O)NCc5c(SC)cc(C)[nH]c5=O)c(C)c4O3)CC2)C1`
0.75

Dear colleague, I am looking for the recorded log10 of IC50 of the following compound: COC1C[N+]([O-])([C@H]2CC[C@@H]([C@H]3COc4c(Cl)cc(C(=O)NCc5c([S+](C)[O-])cc(C)n(O)c5=O)c(C)c4O3)CC2)C1 (stereo partly shown)
1.63

Fill blank: measured log10 of IC50 of the compound COC1CN(C2CCC(C3COc4c(Cl)cc(C(=O)NCc5c(C)cc(C)[nH]c5=O)c(C)c4O3)CC2)C1 (single isomer, unassigned) [Compound 62] is ____.
1.34

Form field: reported log10 of IC50 of Cc1cc(C)c(CNC(=O)c2cc(Cl)c3c(c2C)OC(C2CCC(N(C)C)CC2)CO3)c(=O)[nH]1 (stereo not shown)
0.59

Form field: reported log10 of IC50 of `CSc1cc(C)[nH]c(=O)c1CNC(=O)c1cc(Cl)c2c(c1C)O[C@@H]([C@H]1CC[C@@H](N3CCN(C)CC3)CC1)CO2`
0.54

So what does the record say about log10 of IC50 for Cc1cc(C)c(CNC(=O)c2cc(Cl)c3c(c2C)OC(C2CCC(N4CC(F)C4)CC2)CO3)c(=O)[nH]1 (single isomer, unassigned) [Compound 71] ?
1.62

Look up log10 of IC50: CSc1cc(C)[nH]c(=O)c1CNC(=O)c1cc(Cl)c2c(c1C)O[C@@H]([C@H]1CC[C@H](N3CC4COCC4C3)CC1)CO2 (stereo partly shown)
0.32

Using the record for `COC1CN([C@H]2CC[C@@H]([C@H]3COc4c(F)cc(C(=O)NCc5c(SC)cc(C)[nH]c5=O)c(C)c4O3)CC2)C1` , report its log10 of IC50.
0.78

Reported log10 of IC50 for `CSc1cc(C)[nH]c(=O)c1CNC(=O)c1cc(Cl)c2c(c1C)O[C@@H]([C@H]1CC[C@H](NC3(CF)COC3)CC1)CO2` : what is it?
0.49

Can you share its log10 of IC50? I mean this compound: `CSc1cc(C)[nH]c(=O)c1CNC(=O)c1cc(Cl)c2c(c1C)O[C@@H]([C@H]1CC[C@H](N3CC(CF)C3)CC1)CO2`
0.53

====

- experimental.system: EZH1/SUZ/EED (Homo sapiens, UniProt O75530+Q15022+Q92800)
- Sequence (Q92800 2-747 limits assumed, one chain of several): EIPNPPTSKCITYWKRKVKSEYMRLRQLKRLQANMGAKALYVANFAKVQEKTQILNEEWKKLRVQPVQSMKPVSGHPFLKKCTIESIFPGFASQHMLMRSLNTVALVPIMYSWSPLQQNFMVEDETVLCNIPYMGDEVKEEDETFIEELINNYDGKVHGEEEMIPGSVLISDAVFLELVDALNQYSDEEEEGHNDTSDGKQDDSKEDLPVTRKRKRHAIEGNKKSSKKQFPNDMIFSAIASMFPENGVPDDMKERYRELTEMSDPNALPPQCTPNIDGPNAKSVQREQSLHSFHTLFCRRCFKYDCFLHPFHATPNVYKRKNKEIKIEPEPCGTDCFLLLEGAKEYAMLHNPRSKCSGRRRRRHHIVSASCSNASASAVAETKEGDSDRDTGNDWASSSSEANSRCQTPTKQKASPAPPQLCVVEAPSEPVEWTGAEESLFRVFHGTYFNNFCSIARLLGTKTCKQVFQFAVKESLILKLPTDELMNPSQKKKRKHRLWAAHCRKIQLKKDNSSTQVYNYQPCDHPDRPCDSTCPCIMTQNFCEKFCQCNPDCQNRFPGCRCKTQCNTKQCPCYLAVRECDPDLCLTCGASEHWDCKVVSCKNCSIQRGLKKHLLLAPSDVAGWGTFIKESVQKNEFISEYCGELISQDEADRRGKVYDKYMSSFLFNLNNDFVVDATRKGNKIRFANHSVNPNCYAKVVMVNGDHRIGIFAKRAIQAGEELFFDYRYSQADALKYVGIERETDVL
- assay.info: Inhibitory effect on EZH1 by the MTase-Glo method (Test Example 1)
- assay.conditions: EZH1/SUZ/EED 25 nM, H3 peptide 10 μM, SAM 3 μM, 30° C. 3 h, read-out: Test Example 1 WT EZH1 IC50
measurement.type: IC50 (µM)
Give the value, in units of µM, as a plain number.

Find IC50 (EZH1/SUZ/EED (Homo sapiens, UniProt O75530+Q15022+Q92800)) for the entry `COC1CN([C@H]2CC[C@@H]([C@H]3COc4c(Cl)cc(C(=O)NCc5c(SC)cc(C)[nH]c5=O)c(Cl)c4O3)CC2)C1`
0.0033

Notebook: pull reported IC50 for EZH1/SUZ/EED (Homo sapiens, UniProt O75530+Q15022+Q92800), entry `[2H]C([2H])([2H])OC1CN([C@H]2CC[C@@H]([C@H]3COc4c(Cl)cc(C(=O)NCc5c(SC)cc(C)[nH]c5=O)c(C)c4O3)CC2)C1`
0.0033

Give EZH1/SUZ/EED (Homo sapiens, UniProt O75530+Q15022+Q92800) IC50 for COC1C[N+]([O-])([C@H]2CC[C@@H]([C@H]3COc4c(Cl)cc(C(=O)NCc5c([S+](C)[O-])cc(C)n(O)c5=O)c(C)c4O3)CC2)C1 (stereo partly drawn)
0.192

Find IC50 (EZH1/SUZ/EED (Homo sapiens, UniProt O75530+Q15022+Q92800)) for the entry `CSc1cc(C)[nH]c(=O)c1CNC(=O)c1cc(C#N)c2c(c1C)O[C@@H]([C@H]1CC[C@H](N3CC(OCCF)C3)CC1)CO2`
0.0293

Item: `CSc1cc(C)[nH]c(=O)c1CNC(=O)c1cc(Cl)c2c(c1C)O[C@@H]([C@H]1CC[C@@H](N(C)C)CC1)CO2` Test system: EZH1/SUZ/EED (Homo sapiens, UniProt O75530+Q15022+Q92800) Read-out: IC50 Value: ?
0.004

Please provide the recorded IC50 for `COc1c(Cl)c2c(c(C)c1C(=O)NCc1c(C)cc(C)[nH]c1=O)O[C@@H]([C@H]1CC[C@H](N(C)C)CC1)CO2` , tested on EZH1/SUZ/EED (Homo sapiens, UniProt O75530+Q15022+Q92800).
5.6

Find the measured IC50: item COC1CN(C2CCC(C3COc4c(Cl)cc(C(=O)NCc5c(C)cc(C)[nH]c5=O)c(C)c4O3)CC2)C1 (single isomer, unassigned) [Compound 61] , target or system EZH1/SUZ/EED (Homo sapiens, UniProt O75530+Q15022+Q92800).
0.162

Enter reported IC50 observed with EZH1/SUZ/EED (Homo sapiens, UniProt O75530+Q15022+Q92800) for COc1cc(C)[nH]c(=O)c1CNC(=O)c1cc(Cl)c2c(c1C)O[C@@H](C1CCC(OCCF)CC1)CO2 (stereo partly drawn)
0.084

Record lookup: for EZH1/SUZ/EED (Homo sapiens, UniProt O75530+Q15022+Q92800), what IC50 belongs to `CSc1cc(C)[nH]c(=O)c1CNC(=O)c1cc(C#N)c2c(c1C)O[C@@H]([C@H]1CC[C@H](N3CC(OC4CC4)C3)CC1)CO2` ?
0.0316

Item: COC1CC2CN([C@H]3CC[C@@H]([C@H]4COc5c(Cl)cc(C(=O)NCc6c(SC)cc(C)[nH]c6=O)c(C)c5O4)CC3)CC2C1 (stereo partly drawn) Test system: EZH1/SUZ/EED (Homo sapiens, UniProt O75530+Q15022+Q92800) Read-out: IC50 Value: ?
0.0022

Please provide the recorded IC50 for `CO[C@@H]1CCN([C@H]2CC[C@H]([C@H]3COc4c(Cl)cc(C(=O)NCc5c(SC)cc(C)[nH]c5=O)c(C)c4O3)CC2)C1` , tested on EZH1/SUZ/EED (Homo sapiens, UniProt O75530+Q15022+Q92800).
0.0086
